Biological target: Gap junction beta-2 protein (Homo sapiens) (UniProt P29033)
Experiment: Inhibition of recombinant human Cx26 expressed in Escherichia coli LB2003 assessed as reduction in cell growth measured after 18 hrs
quantityName: Imax (%)
Express the result in % but write the number alone.

input: Data request, read-out Imax, for `CCCCCCOC[C@H]1O[C@@H](O[C@@H]2[C@@H](O)[C@H](O[C@H]3O[C@H](CN)[C@@H](O)[C@H](O)[C@H]3O)[C@@H](N)C[C@H]2N)[C@H](O)[C@@H](N)[C@@H]1OCCCCCC`
output: 99

input: Name the reported Imax value associated with the compound `NC[C@H]1O[C@H](O[C@H]2[C@H](O)[C@@H](O[C@@H]3O[C@H](COCc4ccc(F)cc4)[C@@H](OCc4ccc(F)cc4)[C@H](N)[C@H]3O)[C@H](N)C[C@@H]2N)[C@H](O)[C@@H](O)[C@@H]1O`
output: 94

input: Quick one: Imax of `NC[C@H]1O[C@H](O[C@H]2[C@H](O)[C@@H](O[C@@H]3O[C@H](COCc4cccc(-c5ccccc5)c4)[C@@H](OCc4cccc(-c5ccccc5)c4)[C@H](N)[C@H]3O)[C@H](N)C[C@@H]2N)[C@H](O)[C@@H](O)[C@@H]1O` ?
output: 94

Others:
input: # get_value(readout='Imax', item= `CCCCCCO[C@H]1[C@H](N)[C@@H](O)[C@H](O[C@@H]2[C@@H](O)[C@H](O[C@H]3O[C@H](CN)[C@@H](O)[C@H](O)[C@H]3O)[C@@H](N)C[C@H]2N)O[C@@H]1CO` )
output: 99

input: # get_value(readout='Imax', item= `CCCCCCCCCOC[C@H]1O[C@@H](O[C@@H]2[C@@H](O)[C@H](O[C@H]3O[C@H](CN)[C@@H](O)[C@H](O)[C@H]3O)[C@@H](N)C[C@H]2N)[C@H](O)[C@@H](N)[C@@H]1OCCCCCCCCC` )
output: 99
